Form field: koff (one value per entry).
Target: T1, His-tagged human TIGIT (human, UniProt Q495A1 22-141)
T1 construct: soluble analyte in SPR
T1 sequence: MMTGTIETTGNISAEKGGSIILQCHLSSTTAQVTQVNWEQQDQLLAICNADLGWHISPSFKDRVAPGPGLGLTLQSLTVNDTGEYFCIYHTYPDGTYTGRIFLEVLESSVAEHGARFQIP
Assay: SPR Biacore, antibody captured on anti-human Fc, His-tagged TIGIT injected
I only need the number, in s⁻¹, no unit after it.

Solved cases below.
# BINDER, koff (s⁻¹)
records = [
    ("3963H03 (antibody, human IgG1, kappa, V domains shown, fully human IgG1 kappa, B-cell cloning hit from OmniRat; also called 3963H03 VH; 3963H03 VK) VH: EIQLVQSGSELKKPGASVKVSCKASGYTFTSYPMNWVRQAPGQGLEWMGWINTNTGNPTYAQGFTGRFVFSLDTSVSTAYLQISSLKAEDTAVYYCARVGGYSVDEYAFDVWGQGTMVTVSS VL: AIRLTQSPSFLSASVGDRVTITCRASQGISSYLAWYQQKPGKAPKLLIYAASTLQSGVPSRFSGSGSGTEFTLTISSLQPEDFATYYCQQLNSYPTFGGGTKVEIKR", 0.000407),
    ("3963H03-12 (antibody, human IgG1, kappa, V domains shown, also called anti-TIGIT H03-12; 39631H03-12) VH: QVQLVQSGSELKKPGASVKVSCKASGYTFTSYPMNWVRQAPGQGLEWMGWINTNTGNPTYAQGFTGRFVFSLDTSVSTAYLQISSLKAEDTAVYYCARVGGYSVDEYAFDVWGQGTLVTVSS VL: DIQLTQSPSFLSASVGDRVTITCRASQGISSYLAWYQQKPGKAPKLLIYAASTLQSGVPSRFSGSGSGTEFTLTISSLQPEDFATYYCQQLSSYPTFGGGTKVEIKR", 0.00067),
]

Ask | Given the entry 7729G05 (antibody, V domains shown, constant regions correspond to those of H03-12) VH: QVQLVQSGSELKKPGASVKVSCKASGYTFTSYPMNWVRQAPGQGLEWMGWINTNTGNPTYAQGFTGRFVFSLDTSVSTAYLQISSLKAEDTAVYYCARVGGFTVPEYAFDIWGQGTTVTVSS VL: DIRLTQSPSFLSASVGDRVTITCRASQGISSYLAWYQQKPGKAPKLLIYAASTLQSGVPSRFSGSGSGTEFTLTISSLQPEDFATYYCGQVMRYPAFGGGTKVEIK , report its measured koff.
Reply | 1.33e-05

The reported measurements were obtained from patent US20220403022A1.
